Listed here: items and their measured Inhibition of ethanol-induced ulcer.
assay: Cytoprotective activity, inhibition of ethanol-induced ulcer (method of Robert); assay type: in vivo; details: rat, 100 mg/kg perorally 30 minutes before 1 ml absolute ethanol, stomach removed one hour after ethanol
Respond numerically; units are % and should not be typed.

Guide cases for Inhibition of ethanol-induced ulcer, answers given:
c1ccc2nc(SCc3c[nH]cn3)nc-2cc1 88.1
CC(C)c1ccc2nc(SCc3csc(N)n3)nc-2cc1 90.0
c1ccc2nc(SCc3cccnc3)nc-2cc1 83.1

What Inhibition of ethanol-induced ulcer value was documented for this compound, "Nc1nc(CSc2nc3cccccc-3n2)cs1" ?
90.3

----------
molecular target: (H^+,K^+)ATPase (Sus scrofa); construct: (H^+,K^+)ATPase is prepared from the pig gastric mucosa; from tissue; host or cells: pig gastric mucosa; assay: Inhibition of (H^+,K^+)ATPase activity (method of Fellenius); format: biochemical; conditions: 3 × 10^-4 M, pig gastric mucosa, pH 7.4, 37° C.
Sequence (P19156 2-1034 limits assumed): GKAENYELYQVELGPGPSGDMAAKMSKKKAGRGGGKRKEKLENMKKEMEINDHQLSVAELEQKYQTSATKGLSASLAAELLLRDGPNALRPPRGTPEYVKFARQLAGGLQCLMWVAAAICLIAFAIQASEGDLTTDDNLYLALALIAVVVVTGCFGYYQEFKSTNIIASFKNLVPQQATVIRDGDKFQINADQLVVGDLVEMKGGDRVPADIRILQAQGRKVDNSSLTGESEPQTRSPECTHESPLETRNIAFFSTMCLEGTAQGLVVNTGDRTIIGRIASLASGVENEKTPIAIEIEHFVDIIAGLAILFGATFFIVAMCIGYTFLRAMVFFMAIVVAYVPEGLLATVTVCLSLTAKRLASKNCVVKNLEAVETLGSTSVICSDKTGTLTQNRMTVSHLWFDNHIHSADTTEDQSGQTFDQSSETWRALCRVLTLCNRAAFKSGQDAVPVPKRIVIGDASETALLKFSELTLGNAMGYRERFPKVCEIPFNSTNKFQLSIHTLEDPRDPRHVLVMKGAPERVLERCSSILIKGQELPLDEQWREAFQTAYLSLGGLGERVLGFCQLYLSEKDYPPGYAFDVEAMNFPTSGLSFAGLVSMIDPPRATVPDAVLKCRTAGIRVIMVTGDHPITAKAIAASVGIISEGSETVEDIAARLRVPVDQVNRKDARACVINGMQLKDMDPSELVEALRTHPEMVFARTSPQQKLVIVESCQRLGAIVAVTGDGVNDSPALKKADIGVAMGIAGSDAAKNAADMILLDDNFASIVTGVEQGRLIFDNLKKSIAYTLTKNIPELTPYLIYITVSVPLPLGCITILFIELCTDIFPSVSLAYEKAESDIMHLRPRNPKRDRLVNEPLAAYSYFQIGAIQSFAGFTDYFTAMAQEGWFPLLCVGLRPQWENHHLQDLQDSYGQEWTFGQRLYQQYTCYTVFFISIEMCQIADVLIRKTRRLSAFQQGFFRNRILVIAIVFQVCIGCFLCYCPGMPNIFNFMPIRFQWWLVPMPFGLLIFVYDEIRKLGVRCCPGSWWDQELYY
Sequence (P18434 whole entry partner): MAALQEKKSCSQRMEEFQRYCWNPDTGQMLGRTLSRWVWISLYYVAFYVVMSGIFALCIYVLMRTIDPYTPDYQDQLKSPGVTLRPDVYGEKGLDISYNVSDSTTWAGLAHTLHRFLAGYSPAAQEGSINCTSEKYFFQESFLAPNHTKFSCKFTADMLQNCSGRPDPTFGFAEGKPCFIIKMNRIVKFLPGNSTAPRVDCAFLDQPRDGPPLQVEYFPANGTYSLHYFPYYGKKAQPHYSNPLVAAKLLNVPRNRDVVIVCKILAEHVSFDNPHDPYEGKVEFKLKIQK
endpoint_label: inhibition at 300 µM (%)
Hi! Could you send only the number? It should be in %, unit omitted.

Study these solved cases before continuing.
compound	target_or_system	unit_text	reported_measurement
Cc1noc(C)c1C[S+]([O-])c1nc2cccccc-2n1 (centres unmarked)	(H^+,K^+)ATPase (Sus scrofa)	%	45
COc1ccc(C[S+]([O-])c2nc3cccccc-3n2)cc1 (centres unmarked)	(H^+,K^+)ATPase (Sus scrofa)	%	32
COc1ccc(C[S+]([O-])c2nc3cccccc-3n2)c(OC)c1OC (centres unmarked)	(H^+,K^+)ATPase (Sus scrofa)	%	25
Nc1ccccc1CSc1nc2cccccc-2n1	(H^+,K^+)ATPase (Sus scrofa)	%	46

Okay, now this compound:
# inhibition at 300 µM lookup, item "Cc1nc(-c2ccccc2)c(CSc2nc3cccccc-3n2)o1"
48

Where do these numbers come from? They come from patent US4735955A.
